# Target: Human immunodeficiency virus type 1 protease (Human immunodeficiency virus 1, UniProt Q72874)
This section presents compounds with their documented IC50 values.

- Smiles Record: "CC(C)CN([C@H](CO)CCCCNC(=O)[C@@H](NC(=O)C1CCCCC1)C(c1ccccc1)c1ccccc1)S(=O)(=O)c1ccc(N)cc1"
  IC50: "< 3.8 nM"
- Smiles Record: "COC(=O)N[C@@H](C(=O)NCCCC[C@@H](CO)N(CC(C)C)S(=O)(=O)c1ccc(N)cc1)c1ccccc1"
  IC50: "> 300 nM"
- Smiles Record: "COC(=O)N[C@@H](C(=O)NCCCC[C@H](CO)N(CC(C)C)S(=O)(=O)c1ccc(N)cc1)C(c1ccccc1)c1ccccc1"
  IC50: "> 300 nM"
